This section presents molecules with their documented %Inh values.
tested on: DYRK1B; conditions: concentration: 1 μM, replicates: in singlicate; n = 1;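 further: KINOMEscan kinase panel screen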

- molecule: "COc1cc2ncn(-c3cc(OCc4ccc(S(C)(=O)=O)cc4)c(C(N)=O)s3)c2cc1OC"
  %Inh: "20%"
- molecule: "Cc1nc(N(C)[C@H]2CN(C(=O)CC#N)CC[C@H]2C)c2cc[nH]c2n1"
  %Inh: "0%"
- molecule: "Cl.c1ccc(Cn2cnc3cc(Nc4ncnc5ccccc45)ccc32)cc1"
  %Inh: "2%"
- molecule: "Cc1c(Cn2c(C)nn3c(=O)cc(N4CCO[C@H](C)C4)nc23)cccc1C(F)(F)F"
  %Inh: "20%"
- molecule: "CCn1c(-c2ccoc2)nc2cnccc21"
  %Inh: "13%"
- molecule: "COc1ccc(-c2cc3c(C)nc(N)nc3n([C@H]3CC[C@H](O)CC3)c2=O)cn1"
  %Inh: "4%"
- molecule: "COc1cc(Nc2ccnc3ccc(C(F)(F)F)cc23)cc(OC)c1OC"
  %Inh: "16%"
- molecule: "COc1cc(Nc2nccc(N3CCC(NC(=O)C4COc5ccccc5O4)C3)n2)cc(OC)c1OC (stereo not shown)"
  %Inh: "5%"
- molecule: "CCC(=O)c1c(-c2ccccc2)c2cc(Cl)ccc2c(=O)n1Cc1cc(S(C)(=O)=O)n(CCC(C)(C)O)n1"
  %Inh: "11%"
- molecule: "O=C1NC(=O)C(c2ccccc2)=C1Nc1cccc(O)c1"
  %Inh: "0%"
- molecule: "O=C(NCc1cccs1)c1cc(C(=O)c2c(Cl)cccc2Cl)c[nH]1"
  %Inh: "16%"
- molecule: "Cc1ccc(Oc2ccc(Nc3ncnc4cc[nH]c34)cc2C)cn1"
  %Inh: "0%"
- molecule: "CCn1c(-c2nonc2N)nc2ccccc21"
  %Inh: "16%"
- molecule: "O=C(Nc1n[nH]c2nc(-c3ccccc3)c(Br)cc12)C1CC1"
  %Inh: "0%"
- molecule: "COc1ccc(-c2cc3c(C)nc(N)nc3n([C@H]3CC[C@H](OCCO)CC3)c2=O)cn1"
  %Inh: "0%"
- molecule: "Cc1ccc(-c2ccc3c(ccc4sc5c(c43)NC[C@@H](C)N=C5N(C)C)n2)cn1"
  %Inh: "0%"
- molecule: "COC(=O)c1c(-c2ccccc2)c2cc(Br)ccc2c(=O)n1Cc1ccc(S(C)(=O)=O)cc1"
  %Inh: "45%"
- molecule: "CN1C(=O)C(Nc2ccccc2)=C(c2ccccc2)C1=O"
  %Inh: "17%"
- molecule: "CCc1nc(-c2cccc(C)c2)c(-c2ccncc2)s1"
  %Inh: "0%"
